// provenance: patent US20070027118A1

- SYSTEM UNDER TEST: 11β-hsd-1 enzyme (Homo sapiens)
- Sequence (P28845 whole entry, species assumed): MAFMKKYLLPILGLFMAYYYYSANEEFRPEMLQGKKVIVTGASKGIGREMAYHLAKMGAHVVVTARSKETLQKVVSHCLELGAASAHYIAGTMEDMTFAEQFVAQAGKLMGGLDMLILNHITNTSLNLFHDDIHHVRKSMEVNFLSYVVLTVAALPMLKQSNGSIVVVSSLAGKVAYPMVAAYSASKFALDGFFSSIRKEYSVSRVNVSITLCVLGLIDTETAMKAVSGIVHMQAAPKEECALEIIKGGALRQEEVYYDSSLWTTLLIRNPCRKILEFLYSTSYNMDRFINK
- ASSAY EXPLANATION: biochemical
Measured Ki of individual entries
# unit: µM | format: bare number

• CCc1cccc(NS(=O)(=O)N2CCN(c3nc4nc(C)ccc4o3)CC2)n1 = 0.28
• Cc1cccc(NS(=O)(=O)N2CCc3ccc(S(C)(=O)=O)cc3CC2)n1 = 0.0255
• CCc1cccc(NS(=O)(=O)N2CCCC(OCc3ccccc3)C2)n1 (stereo not drawn) = 0.052
• CCc1cccc(NS(=O)(=O)N2CCC(CCc3ccnc(NCC4CC4)n3)CC2)n1 = 0.011
• CC(C)c1cccc(NS(=O)(=O)N2CCN(c3ccc(C#N)cn3)CC2)n1 = 0.0024
• Cc1cccc(N2CCN(S(=O)(=O)Nc3ccc4ccccc4n3)CC2)n1 = 0.016

Hey, 11β-hsd-1 enzyme (Homo sapiens) data for COc1cccc(N2CCN(S(=O)(=O)Nc3cccc(C)n3)CC2)n1 : Ki came out at 0.0065

Measured on 11β-hsd-1 enzyme (Homo sapiens), O=S(=O)(Nc1ccc2ccccc2n1)N1CCCC(COCC2CC2)CC1 (stereo not drawn) has a documented Ki of 0.028

The compound Cc1cccc(NS(=O)(=O)N2CCOC(COc3cc(F)cc(F)c3)C2)n1 (stereo not drawn) , tested on 11β-hsd-1 enzyme (Homo sapiens), showed Ki of 0.11
